The values you see were collected from paper PMC10447463.

System: HIV-1 infection of TZM-bl cells
TEST_DESCRIPTION: HIV-1 infectivity enhancement assay, β-galactosidase luminescence
Assay type: cell-based
EXPERIMENTAL_PARAMETERS: peptide 0.26 µM, replicate 2, absolute infection signal, Figure 4A
ASSAY_METRIC: Infect 2 0.26 µM

substance=KAKAQA tested_system="HIV-1 infection of TZM-bl cells" value_reported=166.67
substance=CHLHLQL tested_system="HIV-1 infection of TZM-bl cells" value_reported=488.9
substance=KFKFQFF tested_system="HIV-1 infection of TZM-bl cells" value_reported=603.33
substance=HHHHKIKIKIKIYYYY tested_system="HIV-1 infection of TZM-bl cells" value_reported=6433.33
